The following compounds each carry a recorded Ki for human MT2 (hMT2) (Homo sapiens, UniProt P49286).

compound: COc1cc2c(CCNC(C)=O)c[nH]c2cc1I
Ki / nM: 2.45

compound: COc1ccc2[nH]cc(CCNC(C)=O)c2c1I
Ki / nM: 10.2

compound: CCC(=O)NC1Cc2ccccc2C(c2ccccc2)C1 (centres unmarked) [4P‐PDOT, 4‐phenyl‐2‐propionamidotetraline, reference compound]
Ki / nM: 1.07

compound: COc1ccc2cccc(C(CO)CNC(=O)CF)c2c1 (centres unmarked)
Ki / nM: 1.12

compound: CCc1ccc2scc(CCNC(C)=O)c2c1
Ki / nM: 7.94

compound: COc1ccc2ncn(CCNC(C)=O)c2c1
Ki / nM: 603

compound: COCC(CNC(C)=O)c1cccc2ccc(OC)cc12 (centres unmarked)
Ki / nM: 7.76

compound: COc1cc(I)c2[nH]cc(CCNC(C)=O)c2c1
Ki / nM: 47.9

---

# tested_on: human MT1 (hMT1) (Homo sapiens, UniProt P48039)
# Sequence (P48039 whole entry): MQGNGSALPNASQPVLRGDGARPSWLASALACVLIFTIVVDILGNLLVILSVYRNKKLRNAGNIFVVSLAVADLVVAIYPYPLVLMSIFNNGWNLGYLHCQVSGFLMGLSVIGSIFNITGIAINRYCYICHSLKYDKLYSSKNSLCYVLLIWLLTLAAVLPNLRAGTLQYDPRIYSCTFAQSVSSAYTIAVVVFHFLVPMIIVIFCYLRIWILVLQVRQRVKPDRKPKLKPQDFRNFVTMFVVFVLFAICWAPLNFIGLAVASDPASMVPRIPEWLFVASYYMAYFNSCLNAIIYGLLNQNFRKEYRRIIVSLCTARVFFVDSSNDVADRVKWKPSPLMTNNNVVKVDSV
# assay_details: 2-[125I]-iodomelatonin competition binding, CHO-K1 membranes
# run_parameters: affinity for MT1, order of magnitude given in text

compound: CCC(=O)NC1Cc2ccccc2C(c2ccccc2)C1 (stereo not shown) [4P‐PDOT, 4‐phenyl‐2‐propionamidotetraline, reference compound]
Ki: ~100 nM

---

# tested_on: MT2 (Homo sapiens, UniProt P49286)
# Sequence (P49286 1-362): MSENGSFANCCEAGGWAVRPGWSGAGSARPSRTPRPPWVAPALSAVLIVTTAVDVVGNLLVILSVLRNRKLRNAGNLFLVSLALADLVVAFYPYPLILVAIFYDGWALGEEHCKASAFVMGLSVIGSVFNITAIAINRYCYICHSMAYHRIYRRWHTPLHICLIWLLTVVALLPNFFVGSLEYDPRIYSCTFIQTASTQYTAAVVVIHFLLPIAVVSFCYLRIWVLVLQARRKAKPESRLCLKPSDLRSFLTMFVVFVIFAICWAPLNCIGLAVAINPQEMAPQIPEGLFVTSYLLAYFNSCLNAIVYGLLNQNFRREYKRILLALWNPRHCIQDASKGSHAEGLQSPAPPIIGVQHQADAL
# assay_details: Overall functionality from the signaling pathway panel

compound: COc1ccc2cccc(CCNC(C)=O)c2c1 [Agomelatine, reference compound]
MT2 Our data (functionality): ago
//
compound: COc1ccc2[nH]cc(CCNC(C)=O)c2c1I [SD1882]
MT2 Our data (functionality): ago
//
compound: CCc1ccc2scc(CCNC(C)=O)c2c1 [S22153]
MT2 Our data (functionality): ago
//
compound: COc1cc(I)c2[nH]cc(CCNC(C)=O)c2c1 [SD1918]
MT2 Our data (functionality): ago
//
compound: CC(=O)NCCc1c(Cc2ccccc2)[nH]c2ccccc12 [Luzindole, N‐acetyl‐2‐benzyltryptamine, reference compound]
MT2 Our data (functionality): partial ago
//
compound: CCC(=O)NC1Cc2ccccc2C(c2ccccc2)C1 (stereo not drawn) [4P‐PDOT, 4‐phenyl‐2‐propionamidotetraline, reference compound]
MT2 Our data (functionality): partial ago

---

# tested_on: human MT1 (hMT1) (Homo sapiens, UniProt P48039)
# assay_details: 2-[125I]-iodomelatonin competition binding, CHO-K1 membranes
# run_parameters: MT1 Affinity (pKi), against 2-[125I]iodomelatonin
// classify(record): look up Ki in ranges Low (below 0.01 µM), Mid (0.01 µM to below 0.1 µM), High (0.1 µM or more)

molecule: COc1cc(I)c2[nH]cc(CCNC(C)=O)c2c1 [SD1918]
tested_on: human MT1 (hMT1) (Homo sapiens, UniProt P48039)
group_label: Mid
//
molecule: CC(=O)NCCc1c(Cc2ccccc2)[nH]c2ccccc12 [Luzindole, N‐acetyl‐2‐benzyltryptamine, reference compound]
tested_on: human MT1 (hMT1) (Homo sapiens, UniProt P48039)
group_label: High
//
molecule: CCC(=O)NC1Cc2ccccc2C(c2ccccc2)C1 (stereo not shown) [4P‐PDOT, 4‐phenyl‐2‐propionamidotetraline, reference compound]
tested_on: human MT1 (hMT1) (Homo sapiens, UniProt P48039)
group_label: High
//
molecule: O=C(NCCc1cccc2ccccc12)C1CCC1 [S20928]
tested_on: human MT1 (hMT1) (Homo sapiens, UniProt P48039)
group_label: High
//
molecule: COc1ccc2ncn(CCNC(C)=O)c2c1 [S21278]
tested_on: human MT1 (hMT1) (Homo sapiens, UniProt P48039)
group_label: High
//
molecule: COc1ccc2[nH]cc(CCNC(C)=O)c2c1I [SD1882]
tested_on: human MT1 (hMT1) (Homo sapiens, UniProt P48039)
group_label: Mid
//
molecule: COc1cc2c(CCNC(C)=O)c[nH]c2cc1I [SD1881]
tested_on: human MT1 (hMT1) (Homo sapiens, UniProt P48039)
group_label: Low
//
molecule: COc1cc2c(CCNC(C)=O)c(I)[nH]c2cc1[N+](=O)[O-] [S27128]
tested_on: human MT1 (hMT1) (Homo sapiens, UniProt P48039)
group_label: Low
//
molecule: COCC(CNC(C)=O)c1cccc2ccc(OC)cc12 (stereo not shown) [S73893]
tested_on: human MT1 (hMT1) (Homo sapiens, UniProt P48039)
group_label: Low
